assay: Apparent oral clearance in human patient with progression lymphoma at 300 mg,po QD consecutively for 14 days; format: ADME; conditions: in vivo, 336 h, time 14 day
MEASURED PROPERTY: CL/F

Look up CL/F: Cc1noc2c1-c1ccccc1C(c1ccc(Cl)cc1)=N[C@H]2CC(N)=O [PELABRESIB]
21 L/h

====

molecular target: CREB-binding protein (Homo sapiens, UniProt Q92793); assay: Displacement of biotinylated JQ1 from CBP bromodomain (unknown origin) incubated for 20 mins by AlphaLISA assay
Sequence (Q92793 whole entry): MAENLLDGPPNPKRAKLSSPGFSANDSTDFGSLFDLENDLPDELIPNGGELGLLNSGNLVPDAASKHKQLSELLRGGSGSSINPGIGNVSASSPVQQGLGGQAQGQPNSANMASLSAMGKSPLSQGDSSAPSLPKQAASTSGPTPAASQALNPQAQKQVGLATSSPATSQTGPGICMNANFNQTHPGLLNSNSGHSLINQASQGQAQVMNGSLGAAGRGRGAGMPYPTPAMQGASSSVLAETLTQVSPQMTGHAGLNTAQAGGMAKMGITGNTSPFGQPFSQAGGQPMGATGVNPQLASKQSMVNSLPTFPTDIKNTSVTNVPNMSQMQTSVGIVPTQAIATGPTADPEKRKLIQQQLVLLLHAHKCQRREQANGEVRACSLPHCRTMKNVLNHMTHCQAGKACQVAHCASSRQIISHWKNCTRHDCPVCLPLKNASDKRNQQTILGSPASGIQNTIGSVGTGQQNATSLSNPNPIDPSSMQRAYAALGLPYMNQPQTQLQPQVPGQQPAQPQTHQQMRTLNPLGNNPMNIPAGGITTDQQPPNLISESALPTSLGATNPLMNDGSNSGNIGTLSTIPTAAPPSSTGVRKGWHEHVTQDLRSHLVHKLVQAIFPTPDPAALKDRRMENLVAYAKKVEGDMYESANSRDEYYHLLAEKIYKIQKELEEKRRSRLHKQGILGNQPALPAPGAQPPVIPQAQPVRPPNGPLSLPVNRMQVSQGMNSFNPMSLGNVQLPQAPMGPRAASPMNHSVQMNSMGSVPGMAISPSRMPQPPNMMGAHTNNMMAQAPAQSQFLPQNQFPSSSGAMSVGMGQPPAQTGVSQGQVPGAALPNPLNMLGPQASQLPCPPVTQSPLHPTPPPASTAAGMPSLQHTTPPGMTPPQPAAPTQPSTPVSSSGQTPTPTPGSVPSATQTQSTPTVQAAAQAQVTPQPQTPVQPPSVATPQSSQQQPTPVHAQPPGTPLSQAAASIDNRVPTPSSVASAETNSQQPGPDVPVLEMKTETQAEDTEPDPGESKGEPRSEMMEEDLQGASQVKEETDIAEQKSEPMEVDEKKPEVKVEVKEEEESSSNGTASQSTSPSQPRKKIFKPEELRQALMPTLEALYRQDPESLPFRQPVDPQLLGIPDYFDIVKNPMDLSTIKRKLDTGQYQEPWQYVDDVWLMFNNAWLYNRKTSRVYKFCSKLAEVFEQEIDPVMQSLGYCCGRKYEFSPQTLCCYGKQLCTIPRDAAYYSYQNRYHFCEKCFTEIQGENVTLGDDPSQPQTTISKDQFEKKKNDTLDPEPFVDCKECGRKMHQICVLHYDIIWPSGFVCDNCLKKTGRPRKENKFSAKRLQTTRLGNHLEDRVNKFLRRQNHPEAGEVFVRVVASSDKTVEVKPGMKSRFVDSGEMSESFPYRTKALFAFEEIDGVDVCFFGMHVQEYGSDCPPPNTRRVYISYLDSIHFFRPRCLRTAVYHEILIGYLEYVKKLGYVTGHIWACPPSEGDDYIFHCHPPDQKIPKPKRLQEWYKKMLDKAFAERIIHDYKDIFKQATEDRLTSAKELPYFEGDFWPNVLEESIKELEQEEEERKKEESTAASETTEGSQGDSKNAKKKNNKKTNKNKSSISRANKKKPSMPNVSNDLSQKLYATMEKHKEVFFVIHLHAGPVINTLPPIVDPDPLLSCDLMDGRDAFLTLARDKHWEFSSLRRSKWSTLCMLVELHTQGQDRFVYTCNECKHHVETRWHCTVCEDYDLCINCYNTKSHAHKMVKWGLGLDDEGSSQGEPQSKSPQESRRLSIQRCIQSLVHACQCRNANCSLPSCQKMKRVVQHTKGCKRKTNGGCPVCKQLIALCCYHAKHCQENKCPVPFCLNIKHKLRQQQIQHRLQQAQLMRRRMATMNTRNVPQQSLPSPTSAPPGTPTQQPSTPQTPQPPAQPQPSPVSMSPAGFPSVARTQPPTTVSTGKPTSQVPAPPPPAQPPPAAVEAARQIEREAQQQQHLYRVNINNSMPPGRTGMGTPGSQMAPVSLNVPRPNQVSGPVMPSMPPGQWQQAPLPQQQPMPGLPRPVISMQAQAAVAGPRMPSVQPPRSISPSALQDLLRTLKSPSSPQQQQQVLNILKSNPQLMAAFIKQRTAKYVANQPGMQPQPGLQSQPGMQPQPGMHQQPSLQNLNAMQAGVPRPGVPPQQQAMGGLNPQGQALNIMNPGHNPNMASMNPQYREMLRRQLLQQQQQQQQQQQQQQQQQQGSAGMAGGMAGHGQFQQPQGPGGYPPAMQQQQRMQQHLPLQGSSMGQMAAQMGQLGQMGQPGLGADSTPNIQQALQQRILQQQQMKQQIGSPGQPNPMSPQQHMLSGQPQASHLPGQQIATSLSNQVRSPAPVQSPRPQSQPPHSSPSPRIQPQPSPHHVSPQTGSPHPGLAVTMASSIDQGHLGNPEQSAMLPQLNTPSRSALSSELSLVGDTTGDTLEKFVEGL
MEASURED PROPERTY: IC50

Would you kindly share the measured IC50 for `Cc1noc2c1-c1ccccc1C(c1ccc(Cl)cc1)=N[C@H]2CC(N)=O` ?
> 20 µM
